# experimentalSystem: recombinant human KLK5 (Homo sapiens, UniProt Q9Y337)
# Sequence (Q9Y337 23-293): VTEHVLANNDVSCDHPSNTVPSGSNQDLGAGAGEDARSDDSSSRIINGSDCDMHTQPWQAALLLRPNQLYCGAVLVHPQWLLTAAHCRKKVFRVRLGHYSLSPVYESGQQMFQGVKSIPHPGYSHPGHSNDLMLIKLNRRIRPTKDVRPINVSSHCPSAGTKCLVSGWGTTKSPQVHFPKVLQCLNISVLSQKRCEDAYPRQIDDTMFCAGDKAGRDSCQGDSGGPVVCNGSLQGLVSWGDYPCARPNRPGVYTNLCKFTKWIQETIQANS
# testDescription: Kallikrein (KLK) 5 enzymatic assay (Boc-VPR-AMC fluorogenic substrate)
# conditionNotes: recombinant human KLK5 0.1 μg/well, Boc-VPR-AMC 100 μM, pH 7.5, room temperature, 1% DMSO; tested a minimum of three times
Listed here: items and their measured IC50.

Recorded IC50, per entry:
compound="COc1c(-c2ccc3c(c2)c(COc2ccccc2CC(=O)O)nn3C2CCCC2)ccnc1CN [Compound 327d]" experimentalsystem="recombinant human KLK5 (Homo sapiens, UniProt Q9Y337)" obsvalue="< 1000 nM"
compound="CC(C)OC(=O)N1CCC2(CC1)CC(Oc1ccccc1CC(=O)O)c1cc(-c3cccc4c(N)nccc34)ccc12 (stereo not shown) [Compound 375b]" experimentalsystem="recombinant human KLK5 (Homo sapiens, UniProt Q9Y337)" obsvalue="< 1000 nM"
compound="CC(C)n1nc(COc2ccccc2CC(=O)O)c2cc(-c3cccc(-c4nnc[nH]4)c3)ccc21 [Compound 52c]" experimentalsystem="recombinant human KLK5 (Homo sapiens, UniProt Q9Y337)" obsvalue="> 10000 nM"

Problem: Please report the measured IC50 for Nc1nccc2c(-c3ccc4c(c3)c(COc3ccccc3CC(=O)O)nn4CC3CCC3)cccc12 [Compound 252h]
Result: < 1000 nM

Problem: Please report the measured IC50 for Cc1cccc(OC2CC3(CCCC3)c3ccc(-c4ccc5ccnc(N)c5c4)cc32)c1CC(=O)O (stereo not shown) [Compound 367b]
Result: < 1000 nM

Problem: Please report the measured IC50 for COc1ncc(N)c2cc(-c3ccc4c(c3)c(COc3ccccc3CC(=O)O)nn4C(C)C)ccc12 [Compound 73d]
Result: > 10000 nM

Problem: Please report the measured IC50 for COc1c(-c2ccc3nn(C4CCC4)c(COc4ccccc4CC(=O)O)c3c2)ccnc1C(=N)N [Compound 24b]
Result: < 1000 nM

====

# experimentalSystem: recombinant human KLK5 (Homo sapiens, UniProt Q9Y337)
# testDescription: Kallikrein (KLK) 5 enzymatic assay (Boc-VPR-AMC fluorogenic substrate)
# conditionNotes: recombinant human KLK5 0.1 μg/well, Boc-VPR-AMC 100 μM, pH 7.5, room temperature, 1% DMSO; tested a minimum of three times
pIC50: −log10 of the molar value.
measure: pIC50

Recorded pIC50, per entry:
compound="COc1cc2nn(C3CCC3)c(COc3ccccc3CC(=O)O)c2cc1-c1cccc(C(=N)N)c1 [Compound 271c]" experimentalsystem="recombinant human KLK5 (Homo sapiens, UniProt Q9Y337)" obsvalue="5.00 to 6.00"
compound="CC(C)N1CCN(C2CC(Oc3ccccc3CC(=O)O)c3cc(-c4cccc5c(N)nccc45)ccc32)CC1 (centres unmarked) [Compound 456g]" experimentalsystem="recombinant human KLK5 (Homo sapiens, UniProt Q9Y337)" obsvalue="> 6.00"
compound="COc1c(CN)cccc1-c1cc(OC)c2occ(COc3ccccc3CC(=O)O)c2c1 [Compound 324d]" experimentalsystem="recombinant human KLK5 (Homo sapiens, UniProt Q9Y337)" obsvalue="< 5.00"

Problem: Please report the measured pIC50 for COc1cc2nn(C3CCC3)c(COc3ccccc3CC(=O)O)c2cc1-c1ccc2ccnc(N)c2c1 [Compound 269f]
Result: > 6.00

Problem: Please report the measured pIC50 for Nc1nccc2c(-c3cc(-c4ccoc4)c4c(c3)c(COc3ccccc3CC(=O)O)nn4C3CCCCO3)cccc12 (centres unmarked) [Compound 106g]
Result: > 6.00

Problem: Please report the measured pIC50 for COCCC1(CCOC)CC(Oc2ccccc2CC(=O)O)c2cc(-c3ccc4ccnc(N)c4c3)ccc21 (centres unmarked) [Compound 446f]
Result: > 6.00

Problem: Please report the measured pIC50 for CC[C@H](C)n1nc(COc2ccccc2CC(=O)O)c2cc(-c3cccc4c(N)nccc34)ccc21 [Compound 193b]
Result: > 6.00

Problem: Please report the measured pIC50 for Cc1cccc(OC2CC3(CCCCC3)c3ccc(-c4cccc5c(N)nccc45)cc32)c1CC(=O)O (centres unmarked) [Compound 377c]
Result: > 6.00

Origin of values: patent US20240239752A1
